- Test system: RNA2 (mismatched RNA, G→U)
- assay name: Melting temperature (Tm) of PNA:RNA duplexes, single-mismatch RNA
- Assay type: binding
- measurement conditions: UV absorbance at 260 nm, PBS buffer pH 7 with urea 5 M, strand concentration 5 μM
metric: Tm, RNA2 in urea (5 M) (°C)

substance	experimental system	unit text	assay value
H-CCGCTGTCACACGCACAG-NH2 [PNA1, unmodified achiral "naked" 18-mer PNA targeted against miR-210, reference compound]	RNA2 (mismatched RNA, G→U)	°C	62
H-CC2DARGGC2DARGTG2DARGTC2DARGAC2DARGAC2DARGGC2DARGAC2DARG AG-NH2 [PNA5, 2D Arg (C2) backbone-modified 18-mer PNA, model 1, alternating modified monomers]	RNA2 (mismatched RNA, G→U)	°C	62
H-C2DArgC2DArgG2DArgC2DArgT2DArgG2DArgT2DArgC2DArgACACGCACAG-NH2 [PNA6, 2D Arg (C2) backbone-modified 18-mer PNA, model 2, stretch of consecutive modified monomers]	RNA2 (mismatched RNA, G→U)	°C	65
H-R8CCGCTGTCACACGCACAG-NH2 [PNA2, 18-mer anti-miR-210 PNA conjugated with octaarginine (R8) peptide, reference compound]	RNA2 (mismatched RNA, G→U)	°C	73
H-C5LArgC5LArgG5LArgC5LArgT5LArgG5LArgT5LArgC5LArgACACGCACAG-NH2 [PNA4, 5L Arg (C5) backbone-modified 18-mer PNA, model 2, stretch of consecutive modified monomers]	RNA2 (mismatched RNA, G→U)	°C	75
